Here, each record is paired with measured MABP (mean arterial blood pressure) data.
system: spontaneously hypertensive rats; assay: Hypotensive activity in spontaneously hypertensive rats (mean arterial blood pressure); type: in vivo, spontaneously hypertensive rats of the Okamoto strain; settings: gavage, about 100 mg/kg or less, two doses 24 hours apart, measured at about 28 hours; average MABP of the SHR 170 ±1.5 mm Hg; number of rats in parentheses
Record the value in mm Hg, omitting the unit from your answer.

Input line: Data request, read-out MABP (mean arterial blood pressure), for CC(C)(C)c1ccc(C(=O)NCCCn2cncn2)cc1 [Example 13]
Output line: 123

Input line: Data request, read-out MABP (mean arterial blood pressure), for CS(=O)(=O)c1ccc(C(=O)NCCCn2cncn2)cc1 [Example 32]
Output line: 110

Input line: Data request, read-out MABP (mean arterial blood pressure), for CN(C)c1ccc(C(=O)NCCCn2cncn2)cc1 [Example 37]
Output line: 117

Input line: Data request, read-out MABP (mean arterial blood pressure), for O=C(NCCCCn1cncn1)c1ccc(Cl)c(Cl)c1 [Example 5]
Output line: 141

----------
Tested on: spontaneously hypertensive rats
Assay: Hypotensive activity in spontaneously hypertensive rats (mean arterial blood pressure)
Assay type: in vivo, spontaneously hypertensive rats of the Okamoto strain
Conditions: gavage, about 100 mg/kg or less, two doses 24 hours apart, measured at about 28 hours; average MABP of the SHR 170 ±1.5 mm Hg; number of rats in parentheses
Protocol: Hypotensive Activity in Spontaneously Hypertensive Rats The novel compounds of the present invention are active hypotensive agents and were tested for hypotensive activity by the method of P. S. Chan and D. Poorvin, Clinical and Experimental Hypertension, 1 (6), 817-830 (1979). […] At about 28 hours after the initial dose the mean arterial blood pressure is measured by the method of Chan and Poorvin vide supra. […]
Here, each record is paired with measured MABP (mean arterial blood pressure) data.
I'd appreciate it if you wrote the number followed by its unit.

O=C(NCCCn1cncn1)c1ccc(I)cc1 [Example 27] : 128 mm Hg
O=C(NCCCn1cncn1)c1ccc(Cl)c(Cl)c1 [Example 12] : 150 mm Hg
O=C1c2ccccc2C(=O)N1CCCCn1cncn1 : 119 mm Hg
O=C(NCCCCn1cncn1)c1ccc(Br)cc1 [Example 8] : 137 mm Hg
O=C(NCCCn1cncn1)c1ccc(Br)cc1 [Example 23] : 147 mm Hg
O=C(Cc1cccc2ccccc12)NCCCCn1cncn1 : 134 mm Hg
Cc1ccc(C(=O)NCCCn2cncn2)cc1 [Example 21] : 145 mm Hg
O=C(NCCCn1cncn1)c1ccccc1 [Example 24] : 124 mm Hg
N#Cc1ccc(C(=O)NCCCn2cncn2)cc1 [Example 19] : 119 mm Hg
O=C(C=Cc1ccc(Cl)cc1)NCCCn1cncn1 [Example 29] : 137 mm Hg

Please examine the following record next.
Input line: Value wanted: MABP (mean arterial blood pressure) (spontaneously hypertensive rats) of entry O=C(NCCCCn1cncn1)c1ccccc1-c1ccccc1 [Example 6]
Output line: 145 mm Hg
